Please provide measured IC50 for the entries that follow.
assay system: recombinant JAK1 (amino acids 866-1154) (Homo sapiens (Human))
Sequence (P23458 866-1154): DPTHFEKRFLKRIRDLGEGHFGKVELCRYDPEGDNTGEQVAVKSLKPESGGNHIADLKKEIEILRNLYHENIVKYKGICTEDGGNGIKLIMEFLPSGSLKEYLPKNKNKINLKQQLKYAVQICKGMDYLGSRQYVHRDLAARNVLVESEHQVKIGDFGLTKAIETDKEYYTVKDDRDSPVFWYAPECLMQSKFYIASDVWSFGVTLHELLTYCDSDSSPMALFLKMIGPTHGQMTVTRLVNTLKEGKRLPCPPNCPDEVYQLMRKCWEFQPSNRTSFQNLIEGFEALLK
test: Enzyme inhibition studies, JAK1 (peptide phosphorylation, Caliper LC3000)
study conditions: ATP concentration not given (assayed at ATP Km 55 μM and at 5 mM)
# unit: nM | format: bare number

### Prompt Look up IC50: `CCOc1nn(C)cc1Nc1ncc(C)c(-c2c[nH]c3c(NC(=O)[C@H](CC)N4CCN(C)CC4)cccc23)n1`
### Response 192

### Prompt Look up IC50: `CCOc1nn(C)cc1Nc1ncc(F)c(-c2c[nH]c3c(NC(=O)[C@@H](C)N4CCN(C)CC4)cccc23)n1`
### Response 55

### Prompt Look up IC50: `COc1nn(C)cc1Nc1ncc(F)c(-c2c[nH]c3c(NC(=O)[C@@H](C)N4CCN(C)[C@H](C)C4)cccc23)n1`
### Response 85

### Prompt Look up IC50: `COCCN1CCN([C@H](C)C(=O)Nc2cccc3c(-c4ccnc(Nc5cn(C)nc5OC)n4)c[nH]c23)CC1`
### Response 575

### Prompt Look up IC50: `CC[C@@H](C(=O)Nc1cccc2c(-c3nc(Nc4cn(C)nc4C)ncc3F)c[nH]c12)N1CCN(C)CC1`
### Response 265

### Prompt Look up IC50: CCOc1nn(C)cc1Nc1ncc(C)c(-c2c[nH]c3c(NC(=O)[C@H](C)N4CCN(C)[C@@H](C)C4)cccc23)n1 [Example 31b]
### Response 454

###

assay system: recombinant JAK2 (amino acids 831-1132) (Homo sapiens (Human))
Sequence (O60674 831-1132): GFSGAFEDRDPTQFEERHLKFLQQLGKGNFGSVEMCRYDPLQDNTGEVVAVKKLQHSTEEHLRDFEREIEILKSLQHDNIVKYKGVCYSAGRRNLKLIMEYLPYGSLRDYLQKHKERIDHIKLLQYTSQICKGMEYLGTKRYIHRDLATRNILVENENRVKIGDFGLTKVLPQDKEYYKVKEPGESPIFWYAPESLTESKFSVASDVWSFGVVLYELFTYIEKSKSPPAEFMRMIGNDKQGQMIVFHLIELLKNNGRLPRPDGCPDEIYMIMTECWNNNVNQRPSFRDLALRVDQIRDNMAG
test: Enzyme inhibition studies, JAK2 (peptide phosphorylation, Caliper LC3000)
study conditions: ATP concentration of the tabulated values not stated (assayed at ATP Km 15 μM and at 5 mM)
True if IC50 is below 20 µM. False if not; exact matches included in False.

### Prompt A record lists CCOc1nn(C)cc1Nc1ncc(F)c(-c2c[nH]c3c(NC(=O)[C@@H](C)N4CCN(C)CC4)cccc23)n1 [Example 39] . Is its IC50 below 20 µM?
### Response False

### Prompt A record lists COCCN1CCN([C@H](C)C(=O)Nc2cccc3c(-c4nc(Nc5cn(C)nc5OC)ncc4F)c[nH]c23)CC1 [Example 3] . Is its IC50 below 20 µM?
### Response False

### Prompt A record lists CCOc1nn(CC)cc1Nc1ncc(C)c(-c2c[nH]c3c(NC(=O)[C@@H](C)N4CCN(C)CC4)cccc23)n1 [Example 59] . Is its IC50 below 20 µM?
### Response False

### Prompt A record lists CCOc1nn(C)cc1Nc1ncc(F)c(-c2c[nH]c3c(NC(=O)[C@H](C)N4CCN(C)[C@@H](C)C4)cccc23)n1 [Example 11b] . Is its IC50 below 20 µM?
### Response False

### Prompt A record lists COC[C@@H](C(=O)Nc1cccc2c(-c3nc(Nc4cn(C)nc4C)ncc3F)c[nH]c12)N1CCN(C)CC1 [Example 54] . Is its IC50 below 20 µM?
### Response False

### Prompt A record lists COc1nn(C)cc1Nc1ncc(F)c(-c2c[nH]c3c(NC(=O)[C@@H](C)N4CCN(C)[C@H](C)C4)cccc23)n1 [Example 2] . Is its IC50 below 20 µM?
### Response True

### Prompt A record lists CCOc1nn(C)cc1Nc1ncc(C)c(-c2c[nH]c3c(NC(=O)[C@@H](C)N4CCN(C)C[C@@H]4C)cccc23)n1 [Example 22] . Is its IC50 below 20 µM?
### Response False

### Prompt A record lists CCOc1nn(C)cc1Nc1ncc(C)c(-c2c[nH]c3c(NC(=O)[C@H](CC)N4CCN(C)CC4)cccc23)n1 [Example 63] . Is its IC50 below 20 µM?
### Response False

### Prompt A record lists CCOc1nn(C)cc1Nc1ncc(F)c(-c2c[nH]c3c(NC(=O)[C@@H](C)N4CCN(CC)CC4)cccc23)n1 [Example 8] . Is its IC50 below 20 µM?
### Response False

### Prompt A record lists COc1nn(C)cc1Nc1ncc(C)c(-c2c[nH]c3c(NC(=O)[C@@H](C)N4CCN(C)[C@@H](C)C4)cccc23)n1 [Example 14] . Is its IC50 below 20 µM?
### Response True

### Prompt A record lists COC[C@@H](C(=O)Nc1cccc2c(-c3nc(Nc4cn(C)nc4OC)ncc3C)c[nH]c12)N1CCN(C)CC1 [Example 46] . Is its IC50 below 20 µM?
### Response False

### Prompt A record lists COC[C@@H](C(=O)Nc1cccc2c(-c3ccnc(Nc4cn(C)nc4OC)n3)c[nH]c12)N1CCN(C)CC1 [Example 61] . Is its IC50 below 20 µM?
### Response False

### Prompt A record lists Cc1nn(C)cc1Nc1ncc(F)c(-c2c[nH]c3c(NC(=O)[C@@H](C)N4CCN(C)CC4)cccc23)n1 [Example 56] . Is its IC50 below 20 µM?
### Response True

### Prompt A record lists CCN1CCN([C@H](C)C(=O)Nc2cccc3c(-c4ccnc(Nc5cn(C)nc5OC)n4)c[nH]c23)CC1 [Example 28] . Is its IC50 below 20 µM?
### Response True

### Prompt A record lists CCOc1nn(C)cc1Nc1ncc(C)c(-c2c[nH]c3c(NC(=O)[C@@H](C)N4CCN(C)CC4)cccc23)n1 [Example 35] . Is its IC50 below 20 µM?
### Response True

### Prompt A record lists COc1nn(C)cc1Nc1ncc(C)c(-c2c[nH]c3c(NC(=O)[C@@H](C)N4CCN(CCO)CC4)cccc23)n1 [Example 15] . Is its IC50 below 20 µM?
### Response True

### Prompt A record lists COc1nn(C)cc1Nc1ncc(C)c(-c2c[nH]c3c(NC(=O)[C@@H](C)N4CCN(C)[C@H](C)C4)cccc23)n1 [Example 18] . Is its IC50 below 20 µM?
### Response True

### Prompt A record lists COc1nn(C)cc1Nc1ncc(F)c(-c2c[nH]c3c(NC(=O)[C@@H](C)N4CCN(C)C[C@H]4C)cccc23)n1 [Example 6] . Is its IC50 below 20 µM?
### Response True

### Prompt A record lists COc1nn(C)cc1Nc1ncc(F)c(-c2c[nH]c3c(NC(=O)[C@@H](C)N4CCN(C)[C@@H](C)C4)cccc23)n1 [Example 5] . Is its IC50 below 20 µM?
### Response True

### Prompt A record lists CC[C@@H](C(=O)Nc1cccc2c(-c3nc(Nc4cn(C)nc4C)ncc3F)c[nH]c12)N1CCN(C)CC1 [Example 50] . Is its IC50 below 20 µM?
### Response False

### Prompt A record lists Cc1cnc(Nc2cn(C)nc2C)nc1-c1c[nH]c2c(NC(=O)[C@@H](C)N3CCN(C)CC3)cccc12 [Example 41] . Is its IC50 below 20 µM?
### Response True

### Prompt A record lists CC[C@@H](C(=O)Nc1cccc2c(-c3nc(Nc4cn(C)nc4OC)ncc3C)c[nH]c12)N1CCN(C)CC1 [Example 43] . Is its IC50 below 20 µM?
### Response False

### Prompt A record lists COc1nn(C)cc1Nc1ncc(C)c(-c2c[nH]c3c(NC(=O)[C@@H](C)N4CCN(C)C[C@H]4C)cccc23)n1 [Example 38] . Is its IC50 below 20 µM?
### Response True

### Prompt A record lists CCOc1nn(C)cc1Nc1ncc(C)c(-c2c[nH]c3c(NC(=O)[C@@H](CC)N4CCN(C)CC4)cccc23)n1 [Example 62] . Is its IC50 below 20 µM?
### Response True

### Prompt A record lists COC[C@H](C(=O)Nc1cccc2c(-c3nc(Nc4cn(C)nc4OC)ncc3C)c[nH]c12)N1CCN(C)CC1 [Example 45] . Is its IC50 below 20 µM?
### Response True

### Prompt A record lists COc1nn(C)cc1Nc1ncc(F)c(-c2c[nH]c3c(NC(=O)[C@H](C)N4CCN(C)C[C@@H]4C)cccc23)n1 [Example 7b] . Is its IC50 below 20 µM?
### Response False
